reported_property: melting point

For the compound "COc1ccc2c(c1)n(C1CCCCC1)c(=O)n2S(=O)(=O)c1ccc([N+](=O)[O-])cc1" , give its reported melting point.
160 °C

For the compound "COC(=O)CCCc1cc2cc(Cl)ccc2n1S(=O)(=O)c1ccc2sc(C)nc2c1" , give its reported melting point.
136 to 138 °C

###

Reported melting point is given for each of the following molecules.

[[record]]
molecule = "COc1ccccc1CN[C@H]1CCCN[C@H]1C1CCCCC1 (relative stereo)"
reported_property = "melting point"
result = "> 225 °C"

[[record]]
molecule = "CCO/C(=C\\c1ccc(OCCc2ccc(OCC)cc2)c(OC)c1)C(=O)O"
reported_property = "melting point"
result = "121 °C"

[[record]]
molecule = "CC(=O)N(C)C(=O)ON=C1SCC(=O)NC1(C)C"
reported_property = "melting point"
result = "218 to 220 °C"

[[record]]
molecule = "COc1cc(OC)nc(C2OC(=O)c3c(Cl)cccc32)n1 (stereo not given)"
reported_property = "melting point"
result = "148 to 149 °C"

[[record]]
molecule = "CSc1nc2cccc3c2n1CC(N(C)C)C3 (stereo not given)"
reported_property = "melting point"
result = "84 to 86 °C"

[[record]]
molecule = "CCCCCOC(=O)CNC(=O)c1nc(Cl)c2ccc(OC(C)C)cc2c1O"
reported_property = "melting point"
result = "75 to 77 °C"


For the molecule CC1CN(c2ccc(Cl)cc2)N=C1NC(=O)C(F)(F)F (stereo not given) , give its reported melting point.
181 to 183 °C

For the molecule "Cc1ccccc1C(=O)Nc1nc(-c2ccccc2)c(-c2ccc(=O)n(C(C)C)n2)s1" , give its reported melting point.
221 to 222 °C

For the molecule "CC(C)(C)c1ccc(/C=N/OCCCOc2ccc(C(=O)O)c(NC(=O)c3cc(C(F)(F)F)cc(C(F)(F)F)c3)c2)cc1" , give its reported melting point.
158 °C

For the molecule "COc1ccc(N2CCOCC2)c2sc(C(N)=O)nc12" , give its reported melting point.
228 to 230 °C
